Every entry's value here was drawn from patent US20260250320A1.

PBMC pSTAT3 IC50 values for the binders below.
subject_of_test: T1, interleukin-23 receptor (IL-23R) (UniProt Q5VWK5 24-629, limits assumed)
T1 sequence (looked up): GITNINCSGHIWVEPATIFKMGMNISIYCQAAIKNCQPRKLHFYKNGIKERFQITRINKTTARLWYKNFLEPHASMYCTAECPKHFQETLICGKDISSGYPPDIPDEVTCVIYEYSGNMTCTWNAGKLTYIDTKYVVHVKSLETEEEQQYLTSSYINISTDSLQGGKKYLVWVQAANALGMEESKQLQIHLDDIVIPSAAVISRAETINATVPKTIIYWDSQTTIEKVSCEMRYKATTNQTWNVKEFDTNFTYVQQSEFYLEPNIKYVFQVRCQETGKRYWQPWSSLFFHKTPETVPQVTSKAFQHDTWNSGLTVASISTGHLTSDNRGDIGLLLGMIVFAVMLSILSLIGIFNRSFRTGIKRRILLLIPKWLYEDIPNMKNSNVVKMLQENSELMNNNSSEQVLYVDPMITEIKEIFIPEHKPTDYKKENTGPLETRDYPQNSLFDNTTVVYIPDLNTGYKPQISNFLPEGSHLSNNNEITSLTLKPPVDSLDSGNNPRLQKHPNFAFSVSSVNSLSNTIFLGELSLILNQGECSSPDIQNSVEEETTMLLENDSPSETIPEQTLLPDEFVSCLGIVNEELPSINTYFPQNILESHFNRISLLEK
test_summary: cell-based or functional assay
*1 amine or outer side, *2 acyl side, *3 side chain or, on linkers, in order; H or OH if unused. Bridges are numbered along the chain shown (N, C = ends). Primed or numbered codes have the meaning given here. Side-chain parts run from the residue outwards. [ ]: non-standard residue; d: D form. Trp(7-Me) = Cc1cccc2c(C[C@H](N)C(=O)O)c[nH]c12; γGlu = O=C(O)[C@H](CCC(=O)[*:2])N[*:1]; 2Nal = N[C@@H](Cc1ccc2ccccc2c1)C(=O)O; AEF = NCCOc1ccc(C[C@H](N)C(=O)O)cc1; 3Pal = N[C@@H](Cc1cccnc1)C(=O)O; Pen = CC(C)(S)[C@H](N)C(=O)O; PEG12′ = not defined here; Thp = NC1(C(=O)O)CCOCC1

XNTXXXXXXXNXXK (MeCO-Pen(3)-N-T-7MeW-K(Ac)-Pen(3)-AEF-2Nal-THP-K(d)-N-3Pya-Sar-K(PEG2PEG2gEC18OH)-CONH2) [SEQ ID NO: 50]	< 0.5 nM

// next item, PBMC pSTAT3 IC50 requested
Request: Dear colleague, I am looking for the recorded PBMC pSTAT3 IC50 of the following binder: Ac-[dK]([PEG12′-γGlu-C20OH])[Pen]NT[Trp(7-Me)]K(Ac)[Pen][AEF][2Nal][Thp]K(Ac)N[3Pal]X-NH2 (disulfide 2-7 (inferred); not fully specified (residue 14); printed as MeCO-k(PEG12gEC20OH)-Pen(3)-N-T-7MeW-K(Ac)-Pen(3)-AEF-2Nal-THP-K(Ac)-N-3Pya-Ser-CONH2) [SEQ ID NO: 104]
Result: < 0.5 nM
